Assay: clinical
Set-up: species or system patients
Conditions: human, in vivo, po, Levodopa plasmatic levels
readout-type: concentration at 5 h
Report as: number unit

Query: Give its concentration at 5 h value. Item: N[C@@H](Cc1ccc(O)c(O)c1)C(=O)O [levodopa, (-)-3-(3,4-dihydroxyphenyl)-L-alanine]
Response: 280 ng/mL

###

Experiment: clinical
Set-up: species or system patients
Settings: human, in vivo, po, Levodopa plasmatic levels
readout-type: concentration at 4 h (ng/mL)
Reply with just the number (in ng/mL).

Query: Please report the recorded concentration at 4 h for N[C@@H](Cc1ccc(O)c(O)c1)C(=O)O [levodopa, (-)-3-(3,4-dihydroxyphenyl)-L-alanine] .
Response: 490

Where do the numbers come from? From patent US4826875A.
